Values from the supplement of paper PMC7877785

experiment: self-splicing fitness, log relative to wild type (ln ratio); higher = more splicing; Tetrahymena group I intron in knt gene, E. coli kanamycin selection, DiMSum; sequences stand for … in CUCUCU…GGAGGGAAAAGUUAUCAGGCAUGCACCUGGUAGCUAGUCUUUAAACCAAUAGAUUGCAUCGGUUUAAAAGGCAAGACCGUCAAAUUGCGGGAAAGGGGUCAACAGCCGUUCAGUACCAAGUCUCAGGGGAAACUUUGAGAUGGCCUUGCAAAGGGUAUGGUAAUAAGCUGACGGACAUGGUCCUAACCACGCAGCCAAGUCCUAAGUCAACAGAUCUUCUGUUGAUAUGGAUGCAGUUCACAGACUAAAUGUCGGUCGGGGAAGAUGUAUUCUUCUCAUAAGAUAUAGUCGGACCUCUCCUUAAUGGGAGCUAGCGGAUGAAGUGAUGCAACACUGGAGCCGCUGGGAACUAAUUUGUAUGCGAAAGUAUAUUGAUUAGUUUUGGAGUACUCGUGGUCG; conditions: 37 °C;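 note: selection with 25 µg/mL kanamycin versus none on LB agar overnight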
Overview of reported self-splicing fitness (ln) across a group of sequences:
Reply briefly: the number, and no unit.

Reference set, count: 2
UCCCAGCAAUAUUACGUAAC : -1.61
UAUGAGCAAUAUUACGGACC : -2.43

Continue with the sequence presented below.
Fill blank: measured self-splicing fitness (ln) of the sequence "CGACAGCAAUAUUACGUAGU" is ____. -2.11

---

experiment: self-splicing fitness, log relative to wild type (ln ratio); higher = more splicing; Tetrahymena group I intron in knt gene, E. coli kanamycin selection, DiMSum; sequences stand for … in CUCUCU…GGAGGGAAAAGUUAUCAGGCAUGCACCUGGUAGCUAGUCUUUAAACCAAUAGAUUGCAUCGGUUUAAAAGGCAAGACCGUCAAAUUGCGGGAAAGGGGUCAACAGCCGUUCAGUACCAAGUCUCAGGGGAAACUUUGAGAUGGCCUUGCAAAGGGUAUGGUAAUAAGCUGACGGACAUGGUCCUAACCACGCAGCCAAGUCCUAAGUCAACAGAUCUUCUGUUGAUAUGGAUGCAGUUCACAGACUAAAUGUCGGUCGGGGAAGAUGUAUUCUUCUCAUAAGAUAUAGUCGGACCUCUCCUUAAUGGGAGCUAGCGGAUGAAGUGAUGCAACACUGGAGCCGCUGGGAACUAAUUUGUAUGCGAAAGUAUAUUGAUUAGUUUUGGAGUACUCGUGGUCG; settings: 30 °C
Classification field. Basis: self-splicing fitness (ln). Definitions: lower bin = under -3, middle bin = from -3 up to -1, upper bin = -1 and over

Reference set (3 entries):
CAUUAGCAAUAUUACGACGU : middle bin
CGAGAGCAAUAUUACGUGAA : lower bin
CCUAAGCAAUAUUACGAGGG : lower bin

Quick check: band for "CGGUAGCAAUAUUACGGAUG" upper bin

Quick check: band for "AAGCAGCAAUAUUACGAAGU" lower bin

Quick check: band for "GACCAGCAAUAUUACGUCCU" middle bin

Quick check: band for "AGACAGCAAUAUUACGCGAC" lower bin

---

assay: self-splicing fitness, log relative to wild type (ln ratio); higher = more splicing; Tetrahymena group I intron in knt gene, E. coli kanamycin selection, DiMSum; sequences stand for … in CUCUCU…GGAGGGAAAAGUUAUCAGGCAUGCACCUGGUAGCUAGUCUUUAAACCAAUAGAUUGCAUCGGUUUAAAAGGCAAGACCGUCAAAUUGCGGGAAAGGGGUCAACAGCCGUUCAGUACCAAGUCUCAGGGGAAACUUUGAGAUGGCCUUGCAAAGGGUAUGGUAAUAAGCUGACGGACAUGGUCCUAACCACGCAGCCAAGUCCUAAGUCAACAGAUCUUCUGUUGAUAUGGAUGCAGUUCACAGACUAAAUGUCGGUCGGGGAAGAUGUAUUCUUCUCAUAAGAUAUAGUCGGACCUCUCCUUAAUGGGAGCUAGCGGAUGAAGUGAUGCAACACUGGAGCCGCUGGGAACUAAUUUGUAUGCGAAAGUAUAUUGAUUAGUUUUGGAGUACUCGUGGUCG; conditions: 30 °C
Overview of reported self-splicing fitness (ln) across a group of sequences:
Reply briefly: the number, and no unit.

Reference set, count: 6
GCCAAGCAAUAUUACGGCAC : -2.04
CACGAGCAAUAUUACGGCCC : -3.09
UUCGAGCAAUAUUACGAACA : -2.9
UACUAGCAAUAUUACGCGGA : -2.97
UGACAGCAAUAUUACGGUUU : -1.07
CGUAAGCAAUAUUACGAGAU : -4.04

Fill blank: measured self-splicing fitness (ln) of the sequence "UCGGAGCAAUAUUACGUAUU" is ____. -4.15

Fill blank: measured self-splicing fitness (ln) of the sequence "GCUUAGCAAUAUUACGCAGU" is ____. -2.45

Fill blank: measured self-splicing fitness (ln) of the sequence "AUUCAGCAAUAUUACGCAUU" is ____. -0.534

Fill blank: measured self-splicing fitness (ln) of the sequence "CCCUAGCAAUAUUACGUAUG" is ____. -3.75

Fill blank: measured self-splicing fitness (ln) of the sequence "AACGAGCAAUAUUACGCAAU" is ____. -4.26

---

assay: self-splicing fitness, log relative to wild type (ln ratio); higher = more splicing; Tetrahymena group I intron in knt gene, E. coli kanamycin selection, DiMSum; sequences stand for … in CUCUCU…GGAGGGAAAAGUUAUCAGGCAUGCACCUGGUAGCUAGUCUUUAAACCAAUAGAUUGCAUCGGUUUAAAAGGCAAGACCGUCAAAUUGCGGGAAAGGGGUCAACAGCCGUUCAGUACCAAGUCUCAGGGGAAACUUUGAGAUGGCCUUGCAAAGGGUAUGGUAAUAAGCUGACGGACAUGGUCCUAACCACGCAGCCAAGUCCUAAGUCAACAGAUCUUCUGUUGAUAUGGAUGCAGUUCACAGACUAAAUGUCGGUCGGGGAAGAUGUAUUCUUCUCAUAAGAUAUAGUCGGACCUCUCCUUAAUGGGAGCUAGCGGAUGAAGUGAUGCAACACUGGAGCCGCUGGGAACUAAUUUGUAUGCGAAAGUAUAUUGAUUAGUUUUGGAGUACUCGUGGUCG; conditions: 37 °C
Overview of reported self-splicing fitness (ln) across a group of sequences:
Reply briefly: the number, and no unit.

Reference set, count: 4
UUGUAGCAAUAUUACGUAUC : -3.03
CACCAGCAAUAUUACGACAA : -2.73
GGCCAGCAAUAUUACGAAGG : -2.62
UAUGAGCAAUAUUACGAGAG : -2.72

Continue with the sequence presented below.
Fill blank: measured self-splicing fitness (ln) of the sequence "GACUAGCAAUAUUACGGCCU" is ____. -0.85

---

Overview of reported self-splicing fitness (ln) across a group of sequences:
assay: self-splicing fitness, log relative to wild type (ln ratio); higher = more splicing; Tetrahymena group I intron in knt gene, E. coli kanamycin selection, DiMSum; sequences stand for … in CUCUCU…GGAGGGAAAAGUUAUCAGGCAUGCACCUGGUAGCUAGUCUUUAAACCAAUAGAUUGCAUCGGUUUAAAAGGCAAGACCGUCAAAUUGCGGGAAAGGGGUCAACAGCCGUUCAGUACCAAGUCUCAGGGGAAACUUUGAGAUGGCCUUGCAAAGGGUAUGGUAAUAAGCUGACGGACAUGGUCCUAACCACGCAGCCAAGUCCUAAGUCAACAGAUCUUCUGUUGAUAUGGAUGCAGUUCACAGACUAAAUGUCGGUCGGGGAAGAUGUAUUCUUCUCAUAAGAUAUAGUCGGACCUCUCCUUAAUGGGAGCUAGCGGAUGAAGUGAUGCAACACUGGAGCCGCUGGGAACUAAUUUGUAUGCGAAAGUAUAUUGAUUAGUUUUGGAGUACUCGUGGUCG; settings: 30 °C
Reply briefly: the number, and no unit.

CGGGAGCAAUAUUACGAGAG : -3.34

Fill blank: measured self-splicing fitness (ln) of the sequence "UCUGAGCAAUAUUACGUUUC" is ____. -2.44

Fill blank: measured self-splicing fitness (ln) of the sequence "UCGCAGCAAUAUUACGAUUC" is ____. -3.5

---

Overview of reported self-splicing fitness (ln) across a group of sequences:
assay: self-splicing fitness, log relative to wild type (ln ratio); higher = more splicing; Tetrahymena group I intron in knt gene, E. coli kanamycin selection, DiMSum; sequences stand for … in CUCUCU…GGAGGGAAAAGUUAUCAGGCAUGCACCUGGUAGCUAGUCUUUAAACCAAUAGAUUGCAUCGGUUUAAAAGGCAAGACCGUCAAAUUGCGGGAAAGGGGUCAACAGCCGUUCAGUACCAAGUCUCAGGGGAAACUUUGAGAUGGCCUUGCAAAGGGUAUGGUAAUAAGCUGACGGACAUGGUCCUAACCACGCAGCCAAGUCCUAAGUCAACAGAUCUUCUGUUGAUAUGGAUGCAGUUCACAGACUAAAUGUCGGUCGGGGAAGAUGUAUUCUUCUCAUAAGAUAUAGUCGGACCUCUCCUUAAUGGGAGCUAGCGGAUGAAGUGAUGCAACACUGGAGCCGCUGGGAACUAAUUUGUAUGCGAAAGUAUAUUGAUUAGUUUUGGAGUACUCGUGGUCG; conditions: 30 °C

GUUUAGCAAUAUUACGAACG : -1.78
AGGAAGCAAUAUUACGAGAU : -4.23
ACCGAGCAAUAUUACGACUC : -1.44
UAUCAGCAAUAUUACGUACC : -2.13
GGGUAGCAAUAUUACGCUAU : -2.86

Fill blank: measured self-splicing fitness (ln) of the sequence "UCAGAGCAAUAUUACGACGA" is ____. -0.0796

Fill blank: measured self-splicing fitness (ln) of the sequence "GGGGAGCAAUAUUACGGUAG" is ____. -3.09

Fill blank: measured self-splicing fitness (ln) of the sequence "CCAUAGCAAUAUUACGGAAU" is ____. -1.22

Fill blank: measured self-splicing fitness (ln) of the sequence "UCUAAGCAAUAUUACGGUUU" is ____. -3.21

Fill blank: measured self-splicing fitness (ln) of the sequence "GGUCAGCAAUAUUACGGGCA" is ____. -0.684

Fill blank: measured self-splicing fitness (ln) of the sequence "UCUGAGCAAUAUUACGUUUA" is ____. -2.83

Fill blank: measured self-splicing fitness (ln) of the sequence "CAAAAGCAAUAUUACGGCGG" is ____. -0.363

Fill blank: measured self-splicing fitness (ln) of the sequence "CAUCAGCAAUAUUACGACCA" is ____. -1.38
